Assay: RP, Thermo Scientific Hypersil GOLD aQ, 100 × 2.1 mm, 1.9 µm, 30 °C, 0.3 mL/min, estimated dead time 0.73 min; A: water + 0.1% formic acid; B: methanol + 0.1% formic acid + 4 mM ammonium formate; gradient (min/%B) 0/0 1/0 8/100 10/100
Details: stereoisomer not certain
Recorded endpoint: LC retention time (min)

Molecule	Recorded endpoint	Value
CC(=O)OC1C(O)C2OC3C=C(C)C(=O)C(O)C3(CO)C1(C)C21CO1 (centres undefined)	LC retention time	4.69
CCCCC(C)C(OC(=O)CC(CC(=O)O)C(=O)O)C(CC(C)CCCCCCC(O)CC(O)C(C)N)OC(=O)CC(CC(=O)O)C(=O)O (centres undefined)	LC retention time	7.19
O=C1C=C2C(=CCOC2O)O1 (centres undefined)	LC retention time	2.12
CC1=CC2OC3C(OC4OC(CO)C(O)C(O)C4O)CC(C)(C34CO4)C2(CO)C(O)C1=O (centres undefined)	LC retention time	4.29
CC(C)CC1C(=O)N2CCCC2C2(O)OC(NC(=O)C3C=C4c5cccc6[nH]cc(c56)CC4N(C)C3)(C(C)C)C(=O)N12 (centres undefined)	LC retention time	6.5
CC(C)C1(NC(=O)C2C=C3c4cccc5[nH]cc(c45)CC3N(C)C2)OC2(O)C3CCCN3C(=O)C(Cc3ccccc3)N2C1=O (centres undefined)	LC retention time	6.55
C=CC(C)(C)C12C=C(O)C(=O)N3C(=Cc4cnc[nH]4)C(=O)NC31N(OC)c1ccccc12 (centres undefined)	LC retention time	6.11
CC1=CC2OC3C(O)CC(C)(C34CO4)C2(CO)C(O)C1=O (centres undefined)	LC retention time	4.26
CC1=C2C(=COC(C)C2C)C(=O)C(C(=O)O)=C1O (centres undefined)	LC retention time	6.53
